In this section, each of the binders is paired with its reported glycan array binding signal (z-score).
- targetOrSystem: Gal(b1-4)GlcNAc(b1-6)GalNAc
- assayInfo: glycan array binding signal (z-score within array); higher = stronger binding
- runParameters: glycan notation: IUPAC condensed, linker removed
This is one part of a sample in which the strongest signals are shown more often than they occur.

| binder | glycan array binding signal (z-score) |
| --- | --- |
| SBD (Rhizopus oryzae), P07683 (protein) ASIPSSASVQLDSYNYDGSTFSGKIYVKNIAYSKKVTVVYADGSDNWNNNGNIIAASFSGPISGSNYEYWTFSASVKGIKEFYIKYEVSGKTYYDNNNSANYQVS | -0.13 |
| RfpC (Mycobacterium tuberculosum), O07747 (protein) MHHHHHHSSGRENLYFQGHMASKSAMAAGLVTASMSLSTAVAHAGPSPNWDAVAQCESGGNWAANTGNGKYGGLQFKPATWAAFGGVGNPAAASREQQIAVANRVLAEQGLDAWPTCGAASGLPIALWSKPAQGIKGS | -0.822 |
| SrpA (Streptococcus sanguis) (protein) SSKSESTVNSQSASSETNRSSTNNGSTSSSSETARVRKRRATDTTPPTITVPSDIIAYRGEEFEFYFEITDDSGQVKNIELSTFGKPLGLNWLEYSEDNFNVPGNATSDNPLRVRVHGTVPLNEPIPADKNRAQFTRTIRAWDAAGNVSSNITFVIKYRAQTDKYNPADPTITYVDRLSSLSPSEKNAVEAAVRAANPQIPAAARITVSANGTVTITYPDSSTDTITANRVVKDLASSRSALT | -0.04 |
| BC2L-D C-terminal domain (Burkholderia cenocepacia), Q39MQ9_BURS3 (protein) LVIVDAVTLLSAYPEASRDPAAPTVIDGRHLYVVSPGDAAQLGHNDSRLFTGLSPGDQLHLRETALALRAEVSVLFIRFALKDAGIVAPIELEVRDAATAVPDADDLLHPSCRPLKDHYWRSDVLAAGATTCTADFAVCDRDGTVSGYFRWETSIEIAGSQPDTKQPGFKPSSDRNGNFSLPPNTAFKAIFYANAADRQDLKLFIDDAPEPAATFVGNSEDGVRLFTLNSKGGKIRIEASANGRQSATDARLAPLSAGDTVWLGWLGAEDGADADYNDGIVILQWPIT | -0.2 |
| Fap1 (Streptococcus parasanguis) (protein) KATSKGTEEKQDSVRENLDKMISEAEVLNDMAARKLITLDAEQQLELMKSLVATQSQLEATKNLIGDPNATVADLQIAYTTLGNNTQALGNELIKLNPNGQIYAVLNNTEASRAATLRSTTTGTKTTFTISDFSNGGTQYYWAGGNANNLKNPISSISAVYDSATGKISWTVEYDPTTILKSPALKTLKTYTGIYIDTSSDSKLSTPTNVLIDGAATNPVTNFYGNGSKGIEYVSKGTTKGVTKHTITFDTAFSGRANDLADLEIKMLAATTLSDPHFYEDGSKGNYGRYNGQTAPYVIANDSGTAIGGYQVSGVNADSIPSDTT | 0.546 |
| AidA (Burkholderia cenocepacia) (protein) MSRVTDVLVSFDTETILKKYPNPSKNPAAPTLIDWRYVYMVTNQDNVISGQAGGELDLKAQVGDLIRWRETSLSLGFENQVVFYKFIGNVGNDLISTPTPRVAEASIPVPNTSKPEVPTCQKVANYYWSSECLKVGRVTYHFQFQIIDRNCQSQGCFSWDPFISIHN | -0.507 |
| Epa23 (Candida glabrata) (protein) MGSSHHHHHHSSGLVPRGSHMIPNPFEGTINNFPSGCSPNHGLYNRGLTMELYNYSYIHPQSIQSYFNTSTLKKMEKGQCWDPSYLDVNYPRTGYKTHNRFAKVNGIDGILDFEFNPTRSCVPSKGQLPQNYNYPLQFTLSNFTMLLYGYFKPKVTAKHTFTIFADDLLFLNFGAGNAFDCCQQQDTIDDFGNYQAYALWGSDTQQNTLTVNLDANIYYPIRMFYNNRDFKGALNMYFTTDESNTKINDFSGYLFNIPDSSEGCPAHISYETECGNVSG | 0.008 |
| cupB6 (Pseudomonas aeruginosa), Q02SP7 (protein) MSMRLFPGRVSLRRRPGAQARQALVLGLCCLTGGQAWALNEVALNCSFGNGKGLPWRVVNELTSGTAKGTVLFARPVSLFLSYKPQASQEAHELVLGGNWSGVGYPGPYGTVASDVKGIGYRISVDAQDGVKRVIPVDNQPHALDKRVTSFSGSTTSDYLQELVLTVDPGELPAGDLKVTSVSGSATLNLWAVDRLKGEASIGSVLAVPADNYPTGVCRKPYSLIGPASIAIGGGPPPPPIPKKCKVEVGREINVKLGSVALKNFPRVNDTSTERSFDISLSECAALAKPEIAFRDKYVSAQQADPTILSLKSGGAAGFGIVVKNGLDQQRIRFDGTPYPMRRVGDSADLPLSAAYIRIGAEGELKAGVADGAAEFTFTFP | -0.128 |
